- Target or test system: T1, human Nectin-4 (human, UniProt Q96NY8 32-349)
- T1 construct: a Gly32-Ser349 FLAG construct is described only under the SPR assay; also called PVRL4
- T1 sequence (looked up): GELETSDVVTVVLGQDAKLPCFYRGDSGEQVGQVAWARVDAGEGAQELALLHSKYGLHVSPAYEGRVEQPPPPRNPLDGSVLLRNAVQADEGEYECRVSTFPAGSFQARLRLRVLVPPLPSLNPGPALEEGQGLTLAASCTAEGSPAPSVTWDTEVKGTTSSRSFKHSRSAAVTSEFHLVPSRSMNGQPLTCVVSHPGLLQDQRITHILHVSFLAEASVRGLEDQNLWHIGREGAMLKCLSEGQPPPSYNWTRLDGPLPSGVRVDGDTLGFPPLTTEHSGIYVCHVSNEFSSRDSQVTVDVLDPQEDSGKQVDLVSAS
- Procedure summary: FP competition, tracer SEQ ID NO 217
*1 amine or outer side, *2 acyl side, *3 side chain or, on linkers, in order; H or OH if unused. Bridges are numbered along the chain shown (N, C = ends). Where no end group is shown, it is not given here. [ ]: non-standard residue; d: D form. 124TriAz = 3-(1,2,4-triazol-1-yl)-alanine, O=C([C@H](Cn1cncn1)N[*:1])[*:2]; TATA = O=C(CC[*:1])N1CN(C(=O)CC[*:2])CN(C(=O)CC[*:3])C1; 1Nal = N[C@@H](Cc1cccc2ccccc12)C(=O)O; Hyp = O=C(O)[C@@H]1C[C@@H](O)CN1; hArg = N=C(N)NCCCC[C@H](N)C(=O)O
Labelling field: enter 1.0 if recorded Ki is less than 40 nM. Enter 0.0 if it equals or exceeds that cut-off.

INSERT INTO measurements (binder, label) VALUES
  ('Ac-CP[1Nal][dD]CM[hArg]DWSSP[Hyp]WC (linker 1-5-15 via TATA) [BCY8180]', 1.0),
  ('Ac-QK[dA]CAPLSDYWCNRIC (linker 4-12-16 via TATA) [BCY7636]', 0.0),
  ('Ac-CPFGCMKNWSTPIWC (linker 1-5-15 via TATA, also called 80-09-02-N054) [BCY7665]', 1.0),
  ('Ac-CPF[dD]CM[hArg][124TriAz]WSTPIWC (linker 1-5-15 via TATA) [BCY7881]', 1.0),
  ('Q[hArg]WCAPLSDYWCNRICA (linker 4-12-16 via TATA) [BCY7278]', 0.0);
